Tested on: HT29 colon
Test: NCI tumour cell line growth inhibition, 48 h
Reported TGI values follow for various molecules

MOLECULE	MEASURED TARGET	TGI
Cn1c(N)c2c3c(sc2nc1=O)CCCC3	HT29 colon	> 75 µM
Cc1ccc(-c2nc3ccc([N+](=O)[O-])cc3[nH]2)cc1	HT29 colon	> 100 µM
Nc1nc(N)c(N=Nc2ccc([As](=O)(O)O)cc2)c(=O)[nH]1	HT29 colon	> 100 µM
CCOC(=O)c1ccc(NC(=O)O/N=C(/Cl)CCl)cc1	HT29 colon	> 100 µM
CC(=O)O[C@H]1CCC2[C@@H]3CCC4=C(O)c5nocc5C[C@]4(C)C3CC[C@@]21C (stereo not given in full)	HT29 colon	> 100 µM

Exercise: Specify the recorded TGI for Cn1c(=O)c2c(no[n+]2[O-])c2ccccc21 , system: HT29 colon.
Solution: 37.2 µM

Exercise: Specify the recorded TGI for CC(C)=C1C(=O)C[C@]2(C)C[C@H]3/C(=C(/C)CCC12)CC[C@@]3(C)O (stereo not given in full) , system: HT29 colon.
Solution: > 50 µM

Exercise: Specify the recorded TGI for O=C(CCc1cc(O)cc(O)c1)NCCc1cc(O)cc(O)c1 , system: HT29 colon.
Solution: > 100 µM

Exercise: Specify the recorded TGI for CCc1cccc(C)c1NC(=O)C(=O)Cc1nc2ccccc2o1 , system: HT29 colon.
Solution: > 100 µM

Exercise: Specify the recorded TGI for NS(=O)(=O)c1ccc(N(/C=C/C(=O)C(F)(F)F)CC(=O)c2ccc(Cl)cc2)cc1 , system: HT29 colon.
Solution: > 100 µM

----------
System: PC-3 prostate
Assay: NCI tumour cell line growth inhibition, 48 h
MEASURED PROPERTY: TGI

COMPOUND	TGI
Cc1cc(OCc2nnc3n2N=C(c2cc(F)c(Cl)cc2Cl)/C(=C/c2ccc(Cl)cc2)S3)ccc1Cl	65 µM

Exercise: Annotate the compound CC(C)(C)c1cc(C(CO)OCCOCCO)cc(C(C)(C)C)c1O (stereo not drawn) with its measured TGI.
Solution: > 100 µM

Exercise: Annotate the compound CSc1nncc2[nH]c(C)nc12 with its measured TGI.
Solution: > 100 µM

Exercise: Annotate the compound O=P(O)(Cc1ccccc1)c1ccccc1-c1ccccc1 with its measured TGI.
Solution: > 100 µM

Exercise: Annotate the compound N#C/C(N)=C(\C#N)NC=NCc1ccccc1 with its measured TGI.
Solution: > 100 µM

Exercise: Annotate the compound CCOP(=O)(O)C(C)(C)NC with its measured TGI.
Solution: > 100 µM

Exercise: Annotate the compound NS(=O)(=O)c1ccc(N(/C=C/C(=O)C(F)(F)F)CC(=O)c2ccc(Cl)cc2)cc1 with its measured TGI.
Solution: 84.1 µM

Exercise: Annotate the compound CC(=O)Nc1ccc2cc(C)c(=O)[nH]c2n1 with its measured TGI.
Solution: > 100 µM

Exercise: Annotate the compound O=C(O)c1cccnc1 with its measured TGI.
Solution: > 100 µM

Exercise: Annotate the compound CC(C)(C)c1cc(C(=O)/C=C/C=C/c2ccccc2)cc(C(C)(C)C)c1O with its measured TGI.
Solution: > 79.9 µM

Exercise: Annotate the compound C[C@H]1C2Cc3cc(N)ccc3[C@@]1(C)CCN2CCc1ccccc1 with its measured TGI.
Solution: 49.9 µM

Exercise: Annotate the compound CC12CC(C#N)(C#N)C(C#N)(CO1)C(=N)O2 (stereo not drawn) with its measured TGI.
Solution: > 100 µM

Exercise: Annotate the compound COc1ccc(CN(Cc2ccc(OC)cc2)C(=O)CC2(O)C=CCC2)cc1 (stereo not drawn) with its measured TGI.
Solution: > 100 µM

----------
System: SF-539 CNS
Experiment: NCI tumour cell line growth inhibition, 48 h
Reported TGI values follow for various molecules

Consider the following illustrative entries.
MOLECULE	MEASURED TARGET	TGI
Cc1c(CNc2ccc(C(=O)NC(CC(=O)O)C(=O)O)cc2)ccc2nc(N)nc(N)c12 (stereo not given)	SF-539 CNS	> 1000 µM
CC(C)(C)c1cc(C(=O)/C=C/C=C/c2ccccc2)cc(C(C)(C)C)c1O	SF-539 CNS	33.6 µM
O=C(NC(=O)c1cn(CCNCCO)c(=O)[nH]c1=O)OCc1ccccc1	SF-539 CNS	> 100 µM
COC1[C@@H](OC(C)=O)[C@@H](NC(=O)C(Cl)(Cl)Cl)C(I)[C@@H](N2C(=O)c3ccccc3C2=O)[C@H]1OC (stereo not given in full)	SF-539 CNS	> 100 µM
O=C1CC(C[C@H](O)C2CCCCC2O)CC(=O)N1Cc1ccccc1 (stereo not given in full)	SF-539 CNS	> 100 µM

Exercise: Annotate the molecule C=CCCCCCCCCCCC1(O)C=CC2=[N+](CCCCCN=C(N)N)CCCN21 (stereo not given) with its measured TGI.
Solution: 7.71 µM

Exercise: Annotate the molecule CN(C)/C=N/n1c2ccccc2c2ccccc21 with its measured TGI.
Solution: > 100 µM

Exercise: Annotate the molecule O=c1cc2oc3cc(O)c(O)cc3c(-c3ccccc3O)c-2cc1O with its measured TGI.
Solution: > 100 µM

Exercise: Annotate the molecule Cc1ccc(-c2nc3ccc([N+](=O)[O-])cc3[nH]2)cc1 with its measured TGI.
Solution: > 100 µM

Exercise: Annotate the molecule CCN(CC)c1nc(-c2ccc(Cl)cc2Cl)nc2ccccc12 with its measured TGI.
Solution: 41.9 µM

----------
Reported TGI values follow for various compounds
Test system: SW-620 colon
Experiment: NCI tumour cell line growth inhibition, 48 h

COMPOUND	TGI
O=C(NC(=O)c1cn(CCNCCO)c(=O)[nH]c1=O)OCc1ccccc1	> 100 µM
Cc1ccc(/C=C/c2c(C(=O)/C=C/c3ccc(C(F)(F)F)cc3)c(C)nc3ccccc23)cc1	4.38 µM
O=c1[nH]cc(COCCO)c(=O)[nH]1	> 100 µM

Exercise: Annotate the compound CC[C@]1(Cc2ccc(OC)c(OC)c2)[C@@H]2C[C@@H](C3OCCO3)ON2O[C@H](OC2CCCC2(c2ccccc2)c2ccccc2)[C@@H]1OC(C)=O (stereo not given in full) with its measured TGI.
Solution: > 100 µM

Exercise: Annotate the compound CCc1nc2ccc(N=NN(C)C)cc2[nH]1 with its measured TGI.
Solution: > 100 µM

Exercise: Annotate the compound CCOC(=O)c1ccc(NC(=O)O/N=C(/Cl)CCl)cc1 with its measured TGI.
Solution: > 100 µM

----------
Tested on: MDA-MB-231 breast
Assay: NCI tumour cell line growth inhibition, 48 h
Reported TGI values follow for various compounds

COMPOUND	TGI
C[C@@H]1C[C@](O)([C@@H](C)Cl)C(=O)O[C@@H]2CCN3CC=C(COC(=O)[C@]1(C)O)[C@H]23	> 100 µM

Exercise: Annotate the compound COC(=O)C1C=CN(N(C)C)C2=C1C(=O)c1c(O)cccc1C2=O (stereo unspecified) with its measured TGI.
Solution: 5.79 µM

Exercise: Annotate the compound COc1cccc2c1C(=O)c1c(O)c3c(c(O)c1C2=O)C[C@@](O)(C(=O)CO)C[C@@H]3OC1CC(N)C(OC)C(C)O1 (stereo partly specified) with its measured TGI.
Solution: 7.01 µM

Exercise: Annotate the compound CCOC(=O)c1csc(NC(=O)CN2CCN(C)CC2)n1 with its measured TGI.
Solution: > 100 µM

Exercise: Annotate the compound O=C1NC(=S)NNC12c1ccccc1-c1ccccc12 with its measured TGI.
Solution: > 10 µM

Exercise: Annotate the compound CC(=O)Nc1ccc2cc(C)c(=O)[nH]c2n1 with its measured TGI.
Solution: > 100 µM

Exercise: Annotate the compound CCN(CC)C(=S)SS(=O)(=O)c1ccc(F)cc1 with its measured TGI.
Solution: > 100 µM

Exercise: Annotate the compound Cc1c(CNc2ccc(C(=O)NC(CC(=O)O)C(=O)O)cc2)ccc2nc(N)nc(N)c12 (stereo unspecified) with its measured TGI.
Solution: > 1000 µM

Exercise: Annotate the compound CC12CC(C#N)(C#N)C(C#N)(CO1)C(=N)O2 (stereo unspecified) with its measured TGI.
Solution: > 100 µM

Exercise: Annotate the compound N#C/C(N)=C(\C#N)NC=NCc1ccccc1 with its measured TGI.
Solution: > 100 µM

Exercise: Annotate the compound CC(=O)Nc1ccc(-c2nc3ccccc3s2)cc1 with its measured TGI.
Solution: 96.1 µM

----------
System: HOP-62 NSCLC
Experiment: NCI tumour cell line growth inhibition, 48 h
MEASURED PROPERTY: TGI (µM)
The answer is to be given in µM; state only the numeric part.

COMPOUND	MEASURED PROPERTY	NUMBER
CC(=O)OC1O[C@@H](C(C)(C)O)CC[C@@H]1[C@H]1CC[C@@]2(C)C3=C(CC[C@]12C)[C@@]1(C)C[C@@H](OC(=O)CC(C)(O)CC(=O)O)[C@H](OC(C)=O)C(C)(C)C1CC3 (stereo not given in full)	TGI	35.4

Next item in the queue.
Exercise: Annotate the compound O=C(CC(O)(C(F)(F)F)C(F)(F)F)c1cc(CC(=O)C(O)(C(F)(F)F)C(F)(F)F)cc(CC(=O)C(O)(C(F)(F)F)C(F)(F)F)c1 with its measured TGI.
Solution: 3.29
